System: HOP-92 NSCLC
run.description: NCI tumour cell line growth inhibition, 48 h
Rule: Yes for TGI not less than 10 µM, No for anything less.

Example entries and their recorded answers appear below.
Decide: TGI of "Nc1nc(Cl)cc(NC2(CO)CCC2)n1" >= 10 µM? Yes

Would you say "Cc1ccc(S(=O)(=O)SC(C)(C)C)cc1" shows TGI at minimum 10 µM? Yes

Could you verify whether the entry "O=c1[nH]c2ccccc2nc1/C=C(\O)c1ccccc1O" shows TGI of no less than 10 µM? Yes

Could you please find out whether "C=C1C(=O)O[C@@H]2[C@H](O)[C@@H](C)[C@@H]3C=CC(=O)[C@@]3(C)[C@@H](OC(=O)/C(C)=C/C)[C@H]12" has TGI that meets 10 µM or exceeds it? No

I'd appreciate it if you could say whether "CCOCCCn1c2c(c3c(O)cccc31)C(=O)c1ccccc1-2" has TGI at least equal to 10 µM. Yes

Others:
Exam item: decide whether the reported TGI for "CC(C)(C)c1cc(OCc2nn3c(Cc4ccccc4)nnc3s2)c(Cl)cc1OCc1nn2c(Cc3ccccc3)nnc2s1" is at least 10 µM. Yes

Decide: TGI of "C=CCN(CCNS(=O)(=O)c1ccc(C)cc1)S(=O)(=O)c1ccc(C)cc1" >= 10 µM? Yes

Identify whether the reported TGI of the following compound is 10 µM or greater: "O=C(NC(=O)c1cc(-c2ccccc2)n[nH]1)c1ccccc1" Yes

hey, is TGI for this one >= 10 µM? Cc1cccc(C)c1NC(=O)C1=NC(=S)NC(c2ccccc2)C1c1nc2ccccc2s1 (stereo unspecified) Yes

###

Tested on: TK-10 renal
run.description: NCI tumour cell line growth inhibition, 48 h
TGI: recorded values

Reference set (10 entries):
Return TGI for the following compound: "O=C1C(c2ccc(Br)cc2)=[N+]([O-])c2ccccc21" 29.7 µM

Answer with the recorded TGI for the compound listed here: "CCCCCCCCCCCCCC[N+](C)(C)CCCCCCCCCCCCCC" 7.03 µM

Consider the compound COc1c2c(c3ccccc3c1O)C1C=CC2C1 (stereo unspecified) and give its recorded TGI. 36.8 µM

Tell me TGI reported for "NC1=NS(=O)(=O)Nc2nc(-c3ccccc3)[nH]c21" > 100 µM

Indicate the recorded TGI value for this compound: COC(=O)C1Cc2c(n(C)c3ccccc23)C(CCC(=O)O)N1Cc1ccccc1 (stereo unspecified) > 100 µM

For the compound ClC/C=C/COC1CCCCO1 (stereo unspecified) , give its measured TGI value. > 100 µM

Specify TGI for "CCc1ccc(CCC(=O)Nc2ncc(Cc3ccc(Cl)cc3)s2)o1" and stop. > 100 µM

Please look at this compound and report its TGI: "COC(=O)c1c(C#N)c(N)nc2c1CCC2" > 100 µM

Give recorded TGI. "CCOC(=O)/C(=C/c1ccc(C(=O)OC)cc1)N(CC)CC" > 100 µM

Report measured TGI; entry is CC1CC/C(=C\c2ccc(F)cc2)C(=O)/C1=C/c1ccc(F)cc1 (stereo unspecified) 8.64 µM

Continuing:
# return recorded TGI for input CCC(C)Nc1ccc(N)cc1 (stereo unspecified) 25.3 µM

Provide only the value of recorded TGI for Cc1cccc(N2C(=O)C3c4[nH]c5ccccc5c4C4CCC(C(C)(C)C)CC4C3C2=O)c1 (stereo unspecified) 27.2 µM

Return value of TGI for input "CCOC(=O)c1cc2c(cc1Cl)SC(=Nc1ccccc1)N(S(=O)(=O)c1ccc(Cl)cc1)S2(=O)=O" , no commentary. 32.3 µM

Identify the reported TGI for the following entry. C[CH2][Ge]([CH2]C)([CH2]C)[O]C(=O)C(OC(C)=O)c1ccccc1 (stereo unspecified) > 100 µM

For the compound CC1=C(c2ccccc2)C(O)(c2ccccc2)C(C)C1=O (stereo unspecified) , report TGI. > 100 µM

Quickly give me recorded TGI for "CC(=O)Nc1c(S(=O)(=O)c2ccccc2)c(C)c(C)n1Cc1ccccc1" > 100 µM

Return the recorded TGI value; entry: "CC(C)(C)c1cc(OCc2nn3c(Cc4ccccc4)nnc3s2)c(Cl)cc1OCc1nn2c(Cc3ccccc3)nnc2s1" > 100 µM

For "NCCCC[C@@H]1NC(=O)[C@H](CC(=O)O)NC(=O)CNC(=O)[C@H](CCCN=C(N)N)NC(=O)[C@@H](N)CSSC[C@@H](C(=O)O)NC(=O)[C@H](CC(=O)O)NC(=O)[C@@H]2CCCN2C(=O)CNC1=O" , write its TGI. > 100 µM

Assign TGI to the following record: "OCCN(/N=C\c1ccc2ccccc2c1)C1=NCCN1" > 100 µM

Read off the recorded TGI for "CN(C)c1ccc2oc(=O)c3ccccc3c2c1" > 100 µM

Read off the recorded TGI for CCCCCCCCCCCC[C@@H](O)[C@H]1CCC([C@H](O)CCCCC(=O)CCCCCCCC2=C[C@H](C)OC2=O)O1 (stereo partly specified) > 50 µM

Numbers sourced from PubChem BioAssay (NCI).
